Recorded values, source the supplement of paper PMC4862054.

test system: CAL-85-1; experiment: normalised response (% of control), CellTox Green; higher = less cell death (100 = DMSO, 0 = benzethonium chloride kill control); settings: incubation time: 72 h
Consider the following compounds; for each one, report its normalised response.
Answers are plain numbers, in %.

CN(C)CCOc1ccc(/C(=C(/CCCl)c2ccccc2)c2ccccc2)cc1 [Toremifene] (100 nM) :: 98.3
N#Cc1ccc(COC[C@H]2O[C@@H](n3c(NCc4ccc(Cl)c(Cl)c4)nc4c(N)ncnc43)[C@H](O)[C@@H]2O)cc1 (1000 nM) :: 97.6

For every listed record, write down its normalised response.
1. CCOC(=O)CCNc1cc(N2CCc3ccccc3CC2)nc(-c2ccccn2)n1 [GSK-J4] (10000 nM)
2. CNC(=O)c1ccc(N2C(=S)N(c3ccc(C#N)c(C(F)(F)F)c3)C(=O)C2(C)C)cc1F [Enzalutamide] (100 nM)
3. S=P(N1CC1)(N1CC1)N1CC1 [Thio-TEPA] (50000 nM)

[2.31, 117, 93.8]

For every listed record, write down its normalised response.
1. COc1cc2/c(=N/c3ccc(Br)cc3F)nc[nH]c2cc1OCC1CCN(C)CC1 [Vandetanib] (1000 nM)
2. CNC(=O)c1cc(Oc2ccc(NC(=O)Nc3ccc(Cl)c(C(F)(F)F)c3)c(F)c2)ccn1 [Regorafenib] (1000 nM)

1: 117; 2: 103

For every listed record, write down its normalised response.
1. Cc1ccc(NC(=O)c2ccc(CN3CCN(C)CC3)cc2)cc1Nc1nc(-c2cccnc2)cs1 [Masitinib] (10000 nM)
2. CO[C@H]1C[C@@H]2CC[C@@H](C)[C@@](O)(O2)C(=O)C(=O)N2CCCC[C@H]2C(=O)O[C@H]([C@H](C)C[C@@H]2CC[C@@H](OP(C)(C)=O)[C@H](OC)C2)CC(=O)[C@H](C)/C=C(\C)[C@@H](O)[C@@H](OC)C(=O)[C@H](C)C[C@H](C)/C=C/C=C/C=C/1C [Ridaforolimus] (10 nM)
3. COc1cc2c(NC3CCN(C(C)C)CC3)nc(N3CCC(F)(F)CC3)nc2cc1OCCCN1CCCC1 [UNC0642] (1000 nM)
4. O=C(Nc1cccnc1)N1CCC(Cc2cccc(Oc3ccc(C(F)(F)F)cn3)c2)CC1 [PF-3845] (100 nM)

1: 76.8; 2: 94.9; 3: 97.7; 4: 97.5

* * *

system: DU-4475; test: normalised viability (% of control), CellTiter-Blue; higher = more viable cells (100 = DMSO, 0 = benzethonium chloride kill control); conditions: incubation time: 72 h
Consider the following compounds; for each one, report its normalised viability.
Answers are plain numbers, in %.

Consider the worked cases shown below.
O=P1(N(CCCl)CCCl)NCCCO1 (stereo unspecified) [Cyclophosphamide] (4 nM) :: 120
O=C(/C=C/c1cccc(S(=O)(=O)Nc2ccccc2)c1)NO [Belinostat] (1 nM) :: 93.1
S=P(N1CC1)(N1CC1)N1CC1 [Thio-TEPA] (10 nM) :: 88.7
O=C(Nc1ccncc1)C(=O)c1cn(Cc2ccc(Cl)cc2)c2ccccc12 [Indibulin] (1 nM) :: 121
Nc1cc(C(F)(F)F)c(-c2cc(N3CCOCC3)nc(N3CCOCC3)n2)cn1 [BKM-120] (1 nM) :: 114

Print DU-4475 normalised viability for NC(=O)c1ccc(I)c([N+](=O)[O-])c1 [Iniparib] (1 nM) .
87.6
